- Tested on: SK-MEL-28
- Test: NCI tumour cell line growth inhibition, 48 h
The source made the active and inactive calls. Rule as the data show it: active = GI50 up to about 1.1 µM and inactive = higher. Non-standard residues stand in square brackets, D forms with d. Residues, ends and D or L forms follow the SMILES beside them. *: point of attachment. Ac5c = NC1(C(=O)O)CCCC1; Cbz = O=C(OCc1ccccc1)*; Boc = CC(C)(C)OC(=O)*; tBu = CC(C)(C)*
I'd be grateful if you could share measured GI50 for these entries.

Below, 8 compounds whose answers are already recorded.
Compound	GI50
Cc1cc2c3c(ccc4[nH]cc(c43)CN2c2ccc(NS(C)(=O)=O)cc2)n1	> 100 µM (inactive)
CSC(=S)Nc1cc(C)ccn1	> 100 µM (inactive)
CC1=C2C=CC(=O)C[C@@]2(C)CCC1	> 100 µM (inactive)
CCc1nc2cc3cccnc3c(Cl)c2[nH]c1=O	> 100 µM (inactive)
O=[N+]([O-])C(=C(NCc1ccccc1)NCc1ccccc1)C(Cl)=C(Cl)Cl	61.2 µM (inactive)
CCc1cccc(C)c1NC(=O)CC1C(=O)Nc2ccccc2S1(=O)=O (stereo not given)	18.5 µM (inactive)
COC(=O)C1(NC(=O)C(Cc2ccccc2)NC(=O)C(NC(=O)C(CCCCNC(=O)OC(C)(C)C)NC(=O)C(Cc2c[nH]c3ccccc23)NC(=O)C(Cc2ccccc2)NC(=O)OCc2ccccc2)C(C)OC(C)(C)C)CCCC1 (stereo not given) (Cbz-FWK(Boc)T(tBu)F[Ac5c]-OMe; configuration not given here)	> 100 µM (inactive)
O=C(NC1C(=O)NC(CCc2ccccc2)NC1=O)OCc1ccccc1 (stereo not given)	> 100 µM (inactive)

Quick request: GI50 for each listed item, please.
1. CN1C(C)(C)CC(=O)C(Br)C1(C)C (stereo not given)
2. COc1ccc(Nc2nc(N)c(C(=O)c3cccs3)s2)cc1

> 100 µM (inactive)
31 µM (inactive)

====

I'd be grateful if you could share measured GI50 for these entries.
- Tested on: UO-31
- Test: NCI tumour cell line growth inhibition, 48 h
The source made the active and inactive calls. Cut-off read from the data, not from the text of the source: active = GI50 up to about 1.1 µM and inactive = higher.

Compound	Target or system	GI50
Cn1c(=O)n(C2(C)C[Se]C2)c2ccccc21	UO-31	> 100 µM (inactive)
Cc1cc2c3c(ccc4[nH]cc(c43)CN2c2ccc(NS(C)(=O)=O)cc2)n1	UO-31	12.7 µM (inactive)
Cn1c(CO)ccc1-c1ccc(-c2ccc(CO)[se]2)[se]1	UO-31	> 100 µM (inactive)
COC(=O)C(=O)C(C(=O)C(=O)Nc1cccc(OC)c1)c1nc2ccc(Cl)cc2nc1O (stereo unspecified)	UO-31	> 100 µM (inactive)
CC(=O)OCC1OC(NC(=O)N(CCCl)N=O)C(OC(C)=O)C(OC(C)=O)C1OC(C)=O (stereo unspecified)	UO-31	> 100 µM (inactive)

Quick request: GI50 for each listed item, please.
1. CSC1=Nc2ccccc2-c2nc3ccccc3cc2C1
2. CC(C)(O)[C@H](CCO)O[Si](c1ccccc1)(c1ccccc1)C(C)(C)C
3. N#CC(C(=O)CCC(=O)Nc1cccc(C(F)(F)F)c1)c1ccc(Cl)cc1 (stereo unspecified)
4. COc1cc2c(c(OC)c1)[C@H](C)N(Cc1ccccc1)C(C)C2 (stereo partly specified)

> 100 µM (inactive)
11 µM (inactive)
> 100 µM (inactive)
54.2 µM (inactive)

Quick request: GI50 for each listed item, please.
1. Cc1cc(NN)nc2[nH]nc(N)c12
2. O=[N+]([O-])c1cnc(N(CCO)CCO)s1

["> 100 µM (inactive)", "> 100 µM (inactive)"]
